Each entry below lists one item and its recorded pIC50 value.
# Tested on: UT-SCC-16B
# protocol-notes: Tumor cell proliferation (alamarBlue) cytotoxicity assay, UT-SCC-16B
# Assay type: cell-based, human
# measurement-context: Homo sapiens, 72 hours treatment
Structures can show the parent of a compound that is named as a salt.
Quick note: pIC50 values are minus log10 of concentrations in mol/L.

In [3]: df
Out[3]:
                                   compound  experimental_result
0  COc1cc(OC)c2oc(COC(=O)Nc3ccn([C@@H]4O[C@H](COP(=O)(O)O)[C@@H](O)C4(F)F)c(=O)n3)cc2c1 [Compound 1, ammonium salt]                 6.89
1  COc1cc(OC)c2oc(COC(=O)Nc3ccn([C@@H]4O[C@H](CO)[C@@H](O)C4(F)F)c(=O)n3)cc2c1 [Int 1-4]                 6.79

Now for a further compound.
In plain terms, Nc1ccn([C@@H]2O[C@H](CO)[C@@H](O)C2(F)F)c(=O)n1 [Gemcitabine, gemcitabine] has a documented pIC50 of 7.00

----------
# protocol-notes: Comparative plasma PK of Compound 1 versus Int 1-4 in male CD-1 mice (study b)
# Format: in vivo
# measurement-context: male, CD-1, mouse, iv, 10 mg/kg, after iv Int 1-4 10.0 mg/kg, Formulation 2, read-out: MRT0-inf
experimental-readout: MRT inf (h)
State just the number; it will be interpreted in h.

>>> df
                                   compound  experimental_result
0  Nc1ccn([C@@H]2O[C@H](CO)[C@@H](O)C2(F)F)c(=O)n1 [Gemcitabine, gemcitabine]                  2.1

The record that follows has no MRT inf shown yet.
Recorded MRT inf (compound COc1cc(OC)c2oc(COC(=O)Nc3ccn([C@@H]4O[C@H](CO)[C@@H](O)C4(F)F)c(=O)n3)cc2c1 [Int 1-4] ): 0.984

----------
Listed below: microsomal CLint values for each entry.
# protocol-notes: Mouse liver S9 stability
# Format: in vitro ADME
# measurement-context: mouse, liver S9, mouse liver S9; read-out: CLint Mean ± SE
Write down the numeric answer in µL/min/mg and omit the unit.

>>> print(df.to_string())
                                   compound  experimental_result
0  COc1cc2ccc(=O)oc2cc1O [Scopoletin, reference compound]                 24.5

// below: microsomal CLint requested for another compound
Summary for this compound, COc1cc(OC)c2oc(COC(=O)Nc3ccn([C@@H]4O[C@H](CO)[C@@H](O)C4(F)F)c(=O)n3)cc2c1 : microsomal CLint is 1.27

----------
The following molecules are listed with their measured MRT last values.
# protocol-notes: Int 1-4 plasma PK in the male cynomolgus monkey (study f)
# Type: in vivo
# measurement-context: after iv Int 1-4 10 mg/kg (study f), read-out: MRT0-last
Report the figure in min without appending any unit label.

In [3]: df
Out[3]:
                              sample_smiles  experimental_result
0  COc1cc(OC)c2oc(COC(=O)Nc3ccn([C@@H]4O[C@H](CO)[C@@H](O)C4(F)F)c(=O)n3)cc2c1                 25.8

Turning to the following molecule.
For reference, reported MRT last for Nc1ccn([C@@H]2O[C@H](CO)[C@@H](O)C2(F)F)c(=O)n1 stands at 18
